Overview of reported T.I. (therapeutic index) across a group of compounds:
- Tested on: P388 leukemia
- experiment_description: In vivo effect against P388 leukemia in mice (TD50, ED50, T.I.)
- run_conditions: calculated from TD50 and ED50

Consider the following illustrative entries.
molecule_smiles=CC[C@]12C=CCN3CC[C@@]4(c5cc([C@@]6(C(=O)OC)C[C@H]7CN(CCc8c6[nH]c6ccccc86)Cc6ccccc67)c(OC)cc5N(C=O)[C@H]4[C@@](O)(C(=O)OC)[C@@H]1OC(C)=O)[C@@H]32 reported=4.6
molecule_smiles=CC[C@]12C=CCN3CC[C@@]4(c5cc([C@@]6(C(=O)OC)C[C@H]7CN(CCc8c6[nH]c6ccccc86)C[C@@H]6CCCC[C@H]76)c(OC)cc5N(C)[C@H]4[C@@](O)(C(=O)OC)[C@@H]1OC(C)=O)[C@@H]32 reported="< 1"
molecule_smiles=CC[C@]12C=CCN3CC[C@@]4(c5cc([C@@]6(C(=O)OC)C[C@H]7CN(CCc8c6[nH]c6ccccc86)C[C@H]6CCCC[C@H]67)c(OC)cc5N(C=O)[C@H]4[C@@](O)(C(=O)OC)[C@@H]1OC(C)=O)[C@@H]32 reported=1.1

Please turn your attention to the following entry.
INPUT: Item CC[C@]12C=CCN3CC[C@@]4(c5cc([C@@]6(C(=O)OC)C[C@H]7CN(CCc8c6[nH]c6ccccc86)C[C@@H]6CCCC[C@H]76)c(OC)cc5N(C=O)[C@H]4[C@@](O)(C(=O)OC)[C@@H]1OC(C)=O)[C@@H]32 has what recorded T.I. (therapeutic index)?
OUTPUT: 2.8

* * *

- System: P388 leukemia
- experiment_description: In vivo effect against P388 leukemia in mice (TD50, ED50, T.I.)
- run_conditions: calculated from TD50 and ED50
T.I. (therapeutic index) reference
// no unit string in output, number only

Sample records with T.I. (therapeutic index):
molecule="CC[C@]12C=CCN3CC[C@@]4(c5cc([C@@]6(C(=O)OC)C[C@H]7CN(CCc8c6[nH]c6ccccc86)C[C@H]6CCCC[C@H]67)c(OC)cc5N(C)[C@H]4[C@@](O)(C(=O)OC)[C@@H]1OC(C)=O)[C@@H]32 [C]" measured_metric="T.I. (therapeutic index)" reported=1.0
molecule="CC[C@]1(O)C[C@H]2CN(CCc3c([nH]c4ccccc34)[C@@](C(=O)OC)(c3cc4c(cc3OC)N(C=O)[C@H]3[C@@](O)(C(=O)OC)[C@H](OC(C)=O)[C@]5(CC)C=CCN6CC[C@]43[C@@H]65)C2)C1 [Vincristine, reference compound]" measured_metric="T.I. (therapeutic index)" reported=5.9

Next, consider the following molecule.
INPUT: # get_value(readout='T.I. (therapeutic index)', item= CC[C@]1(O)C[C@@H]2CN(CCc3c([nH]c4ccccc34)[C@@](C(=O)OC)(c3cc4c(cc3OC)N(C)[C@H]3[C@@](O)(C(=O)OC)[C@H](OC(C)=O)[C@]5(CC)C=CCN6CC[C@]43[C@@H]65)C2)C1 [Vinblastine, reference compound] )
OUTPUT: 1.9

* * *

Fold-resistance overview
- Tested on: P388 multiple-drug resistant cells
- experiment_description: cells
- Type: cell-based, murine
- run_conditions: ID50 resistant cell line divided by ID50 wildtype cell line; 7200 min
Answer as a number with no unit attached.

Worked cases, answers included:
molecule="CC[C@]12C=CCN3CC[C@@]4(c5cc([C@@]6(C(=O)OC)C[C@H]7CN(CCc8c6[nH]c6ccccc86)Cc6ccccc67)c(OC)cc5N(C)[C@H]4[C@@](O)(C(=O)OC)[C@@H]1OC(C)=O)[C@@H]32 [A]" reported=4
molecule="CC[C@]12C=CCN3CC[C@@]4(c5cc([C@@]6(C(=O)OC)C[C@H]7CN(CCc8c6[nH]c6ccccc86)C[C@@H]6CCCC[C@H]76)c(OC)cc5N(C=O)[C@H]4[C@@](O)(C(=O)OC)[C@@H]1OC(C)=O)[C@@H]32 [Compound F]" reported=12
molecule="CC[C@]1(O)C[C@H]2CN(CCc3c([nH]c4ccccc34)[C@@](C(=O)OC)(c3cc4c(cc3OC)N(C=O)[C@H]3[C@@](O)(C(=O)OC)[C@H](OC(C)=O)[C@]5(CC)C=CCN6CC[C@]43[C@@H]65)C2)C1 [Vincristine, reference compound]" reported=57

INPUT: Record request: Fold-resistance value, item CC[C@]1(O)C[C@@H]2CN(CCc3c([nH]c4ccccc34)[C@@](C(=O)OC)(c3cc4c(cc3OC)N(C)[C@H]3[C@@](O)(C(=O)OC)[C@H](OC(C)=O)[C@]5(CC)C=CCN6CC[C@]43[C@@H]65)C2)C1 [Vinblastine, reference compound]
OUTPUT: 16

* * *

- Test system: P388 multiple-drug resistant cells
- experiment_description: cells
- Format: cell-based, murine
- run_conditions: ID50 resistant cell line divided by ID50 wildtype cell line; 7200 min
Entries and their Fold-resistance
No unit in the answer, only the number.

Worked set:
molecule_smiles=CC[C@]12C=CCN3CC[C@@]4(c5cc([C@@]6(C(=O)OC)C[C@H]7CN(CCc8c6[nH]c6ccccc86)C[C@@H]6CCCC[C@H]76)c(OC)cc5N(C)[C@H]4[C@@](O)(C(=O)OC)[C@@H]1OC(C)=O)[C@@H]32 reported=6
molecule_smiles=CC[C@]12C=CCN3CC[C@@]4(c5cc([C@@]6(C(=O)OC)C[C@H]7CN(CCc8c6[nH]c6ccccc86)Cc6ccccc67)c(OC)cc5N(C=O)[C@H]4[C@@](O)(C(=O)OC)[C@@H]1OC(C)=O)[C@@H]32 reported=11
molecule_smiles=CC[C@]12C=CCN3CC[C@@]4(c5cc([C@@]6(C(=O)OC)C[C@H]7CN(CCc8c6[nH]c6ccccc86)C[C@H]6CCCC[C@H]67)c(OC)cc5N(C)[C@H]4[C@@](O)(C(=O)OC)[C@@H]1OC(C)=O)[C@@H]32 reported=4

INPUT: What value of Fold-resistance has been reported for the following molecule? CC[C@]12C=CCN3CC[C@@]4(c5cc([C@@]6(C(=O)OC)C[C@H]7CN(CCc8c6[nH]c6ccccc86)C[C@H]6CCCC[C@H]67)c(OC)cc5N(C=O)[C@H]4[C@@](O)(C(=O)OC)[C@@H]1OC(C)=O)[C@@H]32
OUTPUT: 36
